// provenance: PubChem BioAssay AID1159580

assay: chemical genetic growth profiling, strain panel (AID 1159580);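 also: tested at 20 µM; growth read once vehicle control cultures reached saturation at 30 °C; 1 = growth at the plate median or of vehicle wells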; details: S. cerevisiae deletion strains, growth OD, locus YKL085W, strain MDH1, stronger effect = lower value
Screen size: about 5,500 compounds; about 2,000 (36%) were called active. Another 18% or so got no clear call; they are omitted. This is one part of the list.
measured-parameter: normalized growth

Returns the measured normalized growth for the input compound. Input: "COS(C)(=O)=O"
1.02 (inactive)

Also check "CS(=O)(=O)OCCCCOS(C)(=O)=O"
0.975 (inactive)

Also check "CCOC(N)=O"
1 (inactive)

Also check Nc1c(Br)cc(Br)cc1CNC1CCC(O)CC1 (configuration not stated)
1 (inactive)

Also check "c1cc2c(cc1[C@H]1OC[C@H]3[C@@H]1CO[C@H]3c1ccc3c(c1)OCO3)OCO2"
0.915 (active)

Also check "Oc1cc(O)cc(/C=C/c2ccccc2)c1"
0.994 (inactive)

Also check "CN(Cc1cc(Br)cc(Br)c1N)C1CCCCC1"
1.01 (inactive)

---

test: chemical genetic growth profiling, strain panel (AID 1159580); conditions: S. cerevisiae deletion strains, growth OD, locus YOL136C, strain PFK27
Among all 5,500 compounds or so, about 2,000 (36%) were called active. Roughly 18% stayed inconclusive and do not appear here. Cut-off read from the data, not from the text of the source: active = normalized growth mostly below about 0.91 (no sharp cut-off); inconclusive = no clear call, values can overlap the other calls; inactive = mostly above about 0.92. Some of the results follow.
# valid calls are t (active), f (inactive); nothing else

Cc1onc(-c2ccccc2Cl)c1-c1nc2ccccc2c(=O)o1 :: f

What did this assay record as the result for "CCc1cc2c(cc1-c1csc(C/C(N)=N\O)n1)C(C)(C)CCC2(C)C" ?
f

Also check "C/C(=N/OC(=O)Nc1ccc(Cl)cc1)c1ccc2c(c1)CCO2"
f

Also check "CSc1cccc(N2C(=O)CC(c3c(Cl)cccc3Cl)CC2=O)c1"
f

Also check "CCOC(=O)NC(=S)NC12CC3CC(CC(C3)C1)C2"
f

---

assay: chemical genetic growth profiling, strain panel (AID 1159580); conditions: S. cerevisiae deletion strains, growth OD, locus YNL128W, strain TEP1, stronger effect = lower value
The whole screen tested about 5,500 compounds, of which about 2,000 (36%) were called active. Another 18% or so got no clear call; they are omitted. This is one part of the list.
measured-parameter: normalized growth

These recorded examples may help you get a feel for the data.
COc1cc(C(=O)O)cc(OC)c1O :: 0.989 (inactive)
CC(=O)Oc1cc(C)c2c(c1C(OC(C)=O)OC(C)=O)Oc1c(c(C)c(OC(C)=O)c3c1C(OC(C)=O)OC3=O)OC2=O (stereo not drawn) :: 0.99 (inactive)
CCn1cc(C(=O)O)c(=O)c2ccc(Cc3ccccc3)nc21 :: 0.988 (inactive)
Nc1c(Br)cc(Br)cc1CNC1CCC(O)CC1 (stereo not drawn) :: 1.02 (inactive)
O=C1OCCN1/N=C\c1ccc([N+](=O)[O-])o1 :: 0.997 (inactive)

Returns the measured normalized growth for the input compound. Input: CC(=O)O[C@H]1C[C@@H](OC(C)=O)C(C)(C)C2C[C@@H](OC(C)=O)[C@]3(C)C(CC[C@@]4(C)[C@H](c5ccoc5)C(=O)[C@H]5O[C@]543)[C@]21C (stereo partly drawn)
0.991 (inactive)

Also check CC1(C)CC2C1CCC1(C)OC1CCC2(C)O (stereo not drawn)
1.04 (inactive)

Also check OC1CCCCC1N1CCC(c2ccccc2)CC1 (stereo not drawn)
0.978 (inactive)

Also check "Cc1ccc(Cl)cc1NC(=S)NCCO"
1.02 (inactive)

Also check "Cc1cn([C@H]2C[C@@H](N=[N+]=[N-])[C@@H](CO)O2)c(=O)[nH]c1=O"
1.01 (inactive)

---

assay: chemical genetic growth profiling, strain panel (AID 1159580); conditions: S. cerevisiae deletion strains, growth OD, locus YEL037C, strain rad23, stronger effect = lower value
Out of some 5,500 compounds screened, about 2,000 (36%) were called active. Roughly 18% stayed inconclusive and do not appear here. This is one part of the list.
hey, just use True if measured normalized growth is less than 1, otherwise False

Illustrative cases are given below, each with its answer.
COc1ccc(/C=C/C(=O)c2ccc(O)cc2O)cc1 :: True
CC[C@@H](C(=O)[C@@H](C)[C@@H](O)[C@H](C)[C@@H]1O[C@@H]([C@@H](CC)C(=O)O)CC[C@@H]1C)[C@H]1OC2(C=C[C@@H](O)[C@]3(CC[C@@](C)([C@H]4CC[C@](O)(CC)[C@H](C)O4)O3)O2)[C@H](C)C[C@@H]1C (some centres not stated) :: True

Now let's try a different one.
Identify whether the compound CC1(C)CC2C1CCC1(C)OC1CCC2(C)O (configuration not stated) records normalized growth below 1.
False

---

assay: chemical genetic growth profiling, strain panel (AID 1159580); conditions: S. cerevisiae deletion strains, growth OD, locus YLR039C, strain RIC1
The campaign covered roughly 5,500 compounds. About 2,000 (36%) were called active. Not shown: some 18% with an inconclusive outcome. Cut-off read from the data, not from the text of the source: active = normalized growth mostly below about 0.91 (no sharp cut-off); inconclusive = no clear call, values can overlap the other calls; inactive = mostly above about 0.92. The list shows a part of the results.
# valid calls are active, inactive; nothing else

NCc1ccc(S(N)(=O)=O)cc1 :: inactive

What did this assay record as the result for "NC(=O)c1cnccn1" ?
inactive

Also check "COc1ccc2c(c1O)-c1c(OC)c(OC)cc3c1[C@H](C2)N(C)CC3"
inactive

Also check "CCCSP(=O)(OCC)SCCC"
inactive

Also check "NCCCCN=C(N)N"
inactive

Also check CC1=CC(=O)CC(C)(C)C1(O)/C=C/C(C)=C\C(=O)O (configuration not stated)
inactive

Also check "CC[C@]12CCCN3CCc4c(n(c5ccccc45)[C@](O)(C(=O)OC)C1)[C@@H]32"
inactive

---

Each entry below lists one item and its recorded normalized growth value.
experiment: chemical genetic growth profiling, strain panel (AID 1159580);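 also: tested at 20 µM; growth read once vehicle control cultures reached saturation at 30 °C; 1 = growth at the plate median or of vehicle wells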; conditions: S. cerevisiae deletion strains, growth OD, locus YDR477W, strain SNF1, stronger effect = lower value
Among all 5,500 compounds or so, about 2,000 (36%) were called active. Not shown: some 18% with an inconclusive outcome. The list shows a part of the results.
Please reply with the value in numeric form only.

These recorded examples may help you get a feel for the data.
Nc1cc(-c2ccc(OC(F)(F)F)cc2)nn1-c1ccc(Cl)c(Cl)c1 :: 0.487
O=C(CCSc1cccs1)Nc1cccc(C(F)(F)F)c1 :: 0.966
O=S(=O)(Nc1cc(C(F)(F)F)ccc1F)c1cc(C(F)(F)F)ccc1Cl :: 0.917
CCCCCc1ccc(S(=O)(=O)Nc2ccc3c(c2)C(=O)OC3)cc1 :: 0.972
COc1cc(N=Cc2cc(Cl)cc(Cl)c2OS(=O)(=O)c2ccc(C)cc2)c(OC)cc1Cl :: 0.914

Now consider a different compound.
Returns the measured normalized growth for the input compound. Input: "Cc1onc(-c2ccccc2Cl)c1-c1nc2ccccc2c(=O)o1"
0.962

---

assay: chemical genetic growth profiling, strain panel (AID 1159580);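 also: tested at 20 µM; growth read once vehicle control cultures reached saturation at 30 °C; 1 = growth at the plate median or of vehicle wells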; details: S. cerevisiae deletion strains, growth OD, locus YDR195W, strain ref2
In all, about 5,500 compounds went through this assay and about 2,000 (36%) were called active. Not shown: some 18% with an inconclusive outcome. No stated cut-off is given here; in the data, active means normalized growth mostly below about 0.91 (no sharp cut-off); inconclusive means no clear call, values can overlap the other calls; inactive means mostly above about 0.92. This is one part of the list.
# valid calls are active, inactive; nothing else

Illustrative cases are given below, each with its answer.
CC[C@@]1(C2O[C@@H](C3O[C@@](O)(CC)[C@H](C)C[C@@H]3C)C[C@@H]2C)CC[C@H]([C@]2(C)CCC3(C[C@H](O)[C@@H](C)[C@@H]([C@H](C)[C@@H](OC)[C@H](C)C(=O)O)O3)O2)O1 (some centres undefined) :: inactive
COc1ccc(/C=C/C(=O)c2cc(O)ccc2O)cc1 :: active
COc1ccc(/C=C/C(=O)O)cc1OC :: inactive

Now let's try a different one.
What did this assay record as the result for COc1ccccc1OCC(O)CN1CCN(CC(=O)Nc2c(C)cccc2C)CC1 (centres undefined) ?
inactive

---

assay: chemical genetic growth profiling, strain panel (AID 1159580);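 also: tested at 20 µM; growth read once vehicle control cultures reached saturation at 30 °C; 1 = growth at the plate median or of vehicle wells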; settings: S. cerevisiae deletion strains, growth OD, locus YNL067W, strain RPL9B
Out of some 5,500 compounds screened, about 2,000 (36%) were called active. Another 18% or so got no clear call; they are omitted. Rule as the data show it: active = normalized growth mostly below about 0.91 (no sharp cut-off); inconclusive = no clear call, values can overlap the other calls; inactive = mostly above about 0.92. Some of the results follow.
# valid calls are active, inactive; nothing else

What did this assay record as the result for "CCn1cc(C(=O)O)c(=O)c2cc3c(cc21)OCO3" ?
inactive

Also check "C/C=C/c1ccc(OC)cc1"
inactive

Also check "CCn1cc(C(=O)O)c(=O)c2cnc(N3CCCC3)nc21"
inactive

Also check "CO[C@@H]1[C@@H](O[C@@H]2O[C@H](C)[C@@H](O[C@H]3C[C@@](C)(O)[C@H](O)[C@H](C)O3)[C@H](N(C)C)[C@H]2O)[C@@H](CC=O)C[C@@H](C)[C@@H](O[C@H]2CC[C@H](N(C)C)[C@@H](C)O2)/C=C/C=C/C[C@H](C)OC(=O)C[C@H]1O"
inactive

Also check CO[C@@H]1C[C@@H](C[C@H]2CC[C@H](C)[C@H]([C@@H](C)C(=O)O)O2)O[C@]2(O[C@](C)([C@H]3CC[C@@](C)(C4O[C@@H](C5O[C@@](O)(CO)[C@H](C)C[C@@H]5C)C[C@@H]4C)O3)C[C@H]2C)[C@@H]1C (some centres undefined)
inactive

Also check "COc1ccccc1-c1cc(=O)c2cccc(OC)c2o1"
inactive

Also check "COc1ccc(/C=C/c2cc(O)cc(O[C@@H]3O[C@H](CO)[C@@H](O)[C@H](O)[C@H]3O)c2)cc1O"
inactive

Also check "CCn1cc(C(=O)O)c(=O)c2ccc(C)nc21"
inactive

Also check "COc1ccc(-c2cc(C(F)F)nn2-c2ccc(S(N)(=O)=O)cc2)cc1F"
inactive

Also check "COc1cc(C(=O)O)c(O)c2c1OCO2"
inactive

Also check "Oc1cc(O)cc(/C=C/c2ccccc2)c1"
inactive

Also check "COc1cc(O)cc(/C=C/c2ccccc2)c1"
active

Also check CC(COc1ccccc1)N(CCCl)Cc1ccccc1 (centres undefined)
inactive

Also check "O=C(O)CNCP(=O)(O)O"
inactive

Also check C[C@@H]1CC2C3CCC4=CC(=O)C=C[C@]4(C)[C@@]3(F)[C@@H](O)C[C@]2(C)[C@@]1(O)C(=O)COP(=O)(O)O (some centres undefined)
inactive

Also check Nc1nc2c(c(=O)[nH]1)N(C=O)C(CNc1ccc(C(=O)N[C@@H](CCC(=O)O)C(=O)O)cc1)CN2 (some centres undefined)
inactive
